Assay: Solubility of Compound 2 by manual dilution combined with visual observation
Type: physicochemical
Settings: aqueous with cosolvent or surfactant or cyclodextrin, thermodynamic from solid; 1:1 DMF:H2O, room temperature
Endpoint: solubility

molecule="C=CC(=O)Nc1cccc(Nc2nc(Nc3ccc(OCCOC)cc3)ncc2F)c1.O=S(=O)(O)c1ccccc1 [Compound 2]" endpoint_value="71 to 106 mg/mL"

###

Assay: Solubility of Compound 2 by manual dilution combined with visual observation
Format: physicochemical
Settings: organic solvent or mixture, thermodynamic from solid; Pyridine, room temperature
Endpoint: solubility

entry_smiles=C=CC(=O)Nc1cccc(Nc2nc(Nc3ccc(OCCOC)cc3)ncc2F)c1.O=S(=O)(O)c1ccccc1 endpoint=solubility endpoint_value="> 234 mg/mL"

###

Assay: Solubility of Compound 2 by manual dilution combined with visual observation
Assay type: physicochemical
Settings: organic solvent or mixture, thermodynamic from solid; Toluene, room temperature
Endpoint: solubility

entry_smiles=C=CC(=O)Nc1cccc(Nc2nc(Nc3ccc(OCCOC)cc3)ncc2F)c1.O=S(=O)(O)c1ccccc1 endpoint_value="< 1000 µg/mL"

###

Assay: Solubility of Compound 2 by manual dilution combined with visual observation
Assay type: physicochemical
Settings: aqueous with cosolvent or surfactant or cyclodextrin, thermodynamic from solid; 3:7 DMF:H2O, room temperature
Experimental: Solubility of Compound 2, at room temperature, was measured in seventeen solvents and two solvent mixtures by manual dilution combined with visual observation.
Endpoint: solubility

entry_smiles=C=CC(=O)Nc1cccc(Nc2nc(Nc3ccc(OCCOC)cc3)ncc2F)c1.O=S(=O)(O)c1ccccc1 endpoint_value="16 to 18 mg/mL"

###

Assay: Solubility of Compound 2 by manual dilution combined with visual observation
Type: physicochemical
Settings: thermodynamic from solid; Water, room temperature
Endpoint: solubility

molecule="C=CC(=O)Nc1cccc(Nc2nc(Nc3ccc(OCCOC)cc3)ncc2F)c1.O=S(=O)(O)c1ccccc1 [Compound 2]" endpoint_value="< 1000 µg/mL"

###

Assay: Solubility of Compound 2 by manual dilution combined with visual observation
Type: physicochemical
Settings: organic solvent or mixture, thermodynamic from solid; Anisole, room temperature
Endpoint: solubility

entry_smiles=C=CC(=O)Nc1cccc(Nc2nc(Nc3ccc(OCCOC)cc3)ncc2F)c1.O=S(=O)(O)c1ccccc1 endpoint=solubility endpoint_value="< 1000 µg/mL"

###

Assay: Solubility of Compound 2 by manual dilution combined with visual observation
Assay type: physicochemical
Settings: organic solvent or mixture, thermodynamic from solid; THF, room temperature
Endpoint: solubility

entry_smiles=C=CC(=O)Nc1cccc(Nc2nc(Nc3ccc(OCCOC)cc3)ncc2F)c1.O=S(=O)(O)c1ccccc1 endpoint_value="~2000 µg/mL"

###

Assay: Solubility of Compound 2 by manual dilution combined with visual observation
Assay type: physicochemical
Settings: organic solvent or mixture, thermodynamic from solid; 1,4-dioxane, room temperature
Endpoint: solubility

entry_smiles=C=CC(=O)Nc1cccc(Nc2nc(Nc3ccc(OCCOC)cc3)ncc2F)c1.O=S(=O)(O)c1ccccc1 endpoint_value="< 1000 µg/mL"

###

Assay: Solubility of Compound 2 by manual dilution combined with visual observation
Format: physicochemical
Settings: organic solvent or mixture, thermodynamic from solid; CH2Cl2, room temperature
Endpoint: solubility

entry_smiles=C=CC(=O)Nc1cccc(Nc2nc(Nc3ccc(OCCOC)cc3)ncc2F)c1.O=S(=O)(O)c1ccccc1 endpoint_value="< 1000 µg/mL"

###

Assay: Solubility of Compound 2 by manual dilution combined with visual observation
Assay type: physicochemical
Settings: organic solvent or mixture, thermodynamic from solid; DMF, room temperature
Endpoint: solubility

entry_smiles=C=CC(=O)Nc1cccc(Nc2nc(Nc3ccc(OCCOC)cc3)ncc2F)c1.O=S(=O)(O)c1ccccc1 endpoint=solubility endpoint_value="> 184 mg/mL"
